Entry source: the supplement of paper PMC9732359

# test_details: protein stability index of a GFP-peptide fusion (yeast GPS) (PSI 1-4); higher = more stable; sorted into four equal gates, so the index is relative within each strain
# conditions_used: doa10∆
The following sequences are listed with their measured protein stability index values.

sequence | protein stability index
VFENYVKKTGENEISSL [CDC53] | 3.14
SNKPCMGIVQDTLCGIR [RPO21] | 2.45
DKPYLLRIVTHLAICLD [YDL116W/NUP84] | 1.33
AYLLLNAAGNTPDATKI [RPP2A] | 2.2
ESTTEATGNESQDATKV [YLR335W/NUP2] | 3.04
TIVTGGGSGNGDDVVND [RPP1] | 3.14
GKSEKLSLLLVEDKIPL [SKI6] | 2.45
RNVGKTLVNKSTGLKSA [RPS1A] | 2.81
VVRNMLALTTLSEPLIK [YCG1] | 1.87
KLVRDAFALAKEKAPTI [RPT5] | 2.56
DVKISNDFFDNGDNLYG [RPN4] | 2.39
VTLSQLVSVTSTLQHFQ [MED8] | 1.9
LPTTVVSNPGDNPPPAD [MED2] | 3.02
SNETIGEIQLLFQRQKL [IRR1] | 2.61
SQVKDSVTETESISQTP [SRP68] | 2.92
LKFAVQVDKVTKEKVNG [RPL26A] | 3.23
QDVLQMLGRAGRPRYDT [BRR2] | 3.41
KLLKIPKFISEALAFTS [YDL116W/NUP84] | 2.32
ITHRDLHYDKDYNLRIY [SSN8] | 2.21
IGEGAKLVRDAFALAKE [RPT5] | 3.51
FFAAIRFVLSDDYSNLK [SMC3] | 2.27
PLQVARCTKIIKGNGES [RPT1] | 2.96
CSHIFTSDQKNKRTQFS [RPB9] | 2.52
NEYRLAFYQVTPEEDEE [RPL22A] | 2.52
GDKEATAPLIQRKNKKN [RPN8] | 3.22
EKNYDRKEPPATVEECV [PRE6] | 3.3
CIIAVSCTLLERGHPKD [POP1] | 1.46
GSVIQTHIAESAKEIAK [MCD1] | 2.91
NKLVMKSKFNKSNRSYS [GAL11] | 2.92
PTTNEPAKPALSFGTAT [YJL041W/NSP1] | 2.97
QLFNWCLMRSLHKLELK [DSN1] | 1.17
KIVDKDGIRQVDDFQAQ [PRE1] | 2.9
FVIGEQGKPYISLPKGK [RPS4A] | 3.34
LVLADAFDIELSEFGIK [YCS4] | 2.92
RLPHQFRPIEIFTDFLP [RRP42] | 1.86
LTEAVEDGPRPFKVFLD [RPL5] | 3.03
EGPKKCIQVNCLNCEKS [SNM1] | 2.62
YVKEKLEAVNSMIEKGG [RPN7] | 2.93
KDQIQAGKWFDPVLDWR [SIR4] | 3.56
GRKVLQKVQGESHIDSR [SIR4] | 3.27
LDKDSSQSSAAAGASVD [RPN6] | 3.47
QWSRIVLQNVFKLVSTP [MED1] | 1.4
VNLSEVMTVPGIDPTRI [RPO21] | 2.92
ARTIKATLPYIKQDIPI [RPB2] | 2.73
VHKERHDGGFDLVHIKD [RPS4A] | 1.48
GCLIKNLPRTKAKSVVN [RMP1] | 2
NAISNTQDDFTTSVDVM [SRP54] | 2.79
VIFVERATPATLTELKD [SRB2] | 2.84
RFEKAVKHVFGKTIVVK [SMC3] | 2.76
DGDASKPAFSFGAKPDE [YJL041W/NSP1] | 3.32
GRDKHALSLLYHLLNYD [SSN3] | 2.91
VVLVSGEGERFTVDKKI [SKP1] | 3.53
YLGEGPRMVRDVFRLAR [RPT3] | 2.79
EVALFSQKAKLMTFNAE [YLR335W/NUP2] | 2.27
FKGVIVKIVDKDGIRQV [PRE1] | 2.26
SESKQLGNTSSVANTPS [SWI3] | 3.08
AEWSLVRIYSGLLKRGD [SNU114] | 2.95
PLIQNSMRTIMKANPAL [PRP8] | 2.4
LSSYQKKIIKCDEHMGL [PRE5] | 2.19
EGLSAQIAFDLVSSASQ [RPN2] | 2.6

* * *

# test_details: protein stability index of a GFP-peptide fusion (yeast GPS) (PSI 1-4); higher = more stable; sorted into four equal gates, so the index is relative within each strain
# conditions_used: ubr1∆
measure: protein stability index

sequence | measure | measured
PDMYERKVENIRTILVN [MED7] | protein stability index | 1.36
KVFDCGDNIVMSANGFA [PRE7] | protein stability index | 2.97
SYQKAWDLLQSGSQNIS [RPN12] | protein stability index | 1.08
TVSRAYGGSRCANCVKE [RPL34A] | protein stability index | 2.19
ANGGSTIISPHKDIPEE [DSN1] | protein stability index | 2.88
ELVKAHLGERAASVIGM [RPC82] | protein stability index | 2.52
EKLNKTDENTPSADGAD [ITC1] | protein stability index | 3.05
APIKKIIERYIKSKADA [PRP8] | protein stability index | 3.13
TDDSFEDKVFASKGRTK [BRN1] | protein stability index | 2.29
NVDYYNVAHRIKEDIKK [SNF2] | protein stability index | 3.02
YFKLDLTSDLVYFGDEN [RRI2] | protein stability index | 1.48
ADDADIEMKDVSSKPSK [MED1] | protein stability index | 3.26
VEKNEIGKMYDEYLGSH [NNF1] | protein stability index | 3.18
TAPANTTDANGSKENYQ [MED2] | protein stability index | 2.86
IPTNPVDNENNKPAIKE [SWI3] | protein stability index | 3.21

* * *

# test_details: protein stability index of a GFP-peptide fusion (yeast GPS) (PSI 1-4); higher = more stable; sorted into four equal gates, so the index is relative within each strain
# conditions_used: san1∆

sequence | protein stability index
IAHENEQKWLIYDKKDH [SRB8] | 2.77
KCGSVTVRLIPAPRGSG [RPS2] | 1.4
CFDSTTGRDAGFGILED [RRP40] | 3.47
ASSPIILEEGSSGMGAF [RPN10] | 2.99
GYKMIPGAKPLQVGDVV [FAS1] | 2.37
DQYDAERDFYHSLREYI [RPO31] | 3.07
ENPDLSTKKKILGIHTS [RPT2] | 2.98
YYNEEGIHILLYSGLII [RPC82] | 2.14
IQRETLLPTNNGQPLNQ [GRR1] | 2.64
RDHEKDTYRTLMEEIES [YIL149C/MLP2] | 3.41
TEDVRLAPELNQAIWKR [RPL31B] | 3.03
KKMTKKAKRSNLYTPKA [PRP8] | 2.39
NYPQDEINAVFNELCDP [POP1] | 2.9
YKDSLALINDLLREFKK [RPN6] | 1.86
AFAFCIPVYCFSHPAHQ [YCG1] | 1.76

* * *

# test_details: protein stability index of a GFP-peptide fusion (yeast GPS) (PSI 1-4); higher = more stable; sorted into four equal gates, so the index is relative within each strain
# conditions_used: ubr1∆

sequence | protein stability index
IVALTNAKDKERLQLLE [SMC3] | 3.21
LETILEEFRNLAALNVW [SSN2] | 3.32
TYKYPSLKGVDPKFRRN [RPL29] | 3.12
HVLKTVDYGGAEWSLVR [SNU114] | 1.31
PSLRKLIESGIGTHHAG [BRR2] | 3.64
KDQIQAGKWFDPVLDWR [SIR4] | 3.22
GCLIKNLPRTKAKSVVN [RMP1] | 2.13
SDGQSRVKDIHLRKLLD [RET1] | 2.99
TRIAGVVYHPSNNELVR [RPS8A] | 2.65
KSSLYSAQDLLDKHERK [YIL149C/MLP2] | 3.15
IFSFHQDSIFQRIIADL [SRB8] | 2.41
SKLMPVLKSSVYEYVIA [RPC82] | 1.46
VPSAKPLILTPPQLANQ [SNF11] | 2.03
ATSVESVDIGVETILSG [FAS2] | 3.1

* * *

# test_details: protein stability index of a GFP-peptide fusion (yeast GPS) (PSI 1-4); higher = more stable; sorted into four equal gates, so the index is relative within each strain
# conditions_used: pdr5∆
Decide by protein stability index: equal to or exceeding 3 means yes, less means no.

sequence | qualitative_label
IHALAAKLLQENDTTLV [FAS1] | no
SVRSLQKRIENGGNSVI [SRP68] | no
GGLKNGVLYQGNIQISE [DIS3] | yes
YPDLQPFVLAENMWPFS [CDC53] | no
TVINEQQREAVRQLYKG [RPL35A] | yes
LMYATDWQMMTSPVTGA [CSL4] | yes
IKIGIRVMKSLSINEKD [YCG1] | no
NSTNSNTTKPAFGGLNF [YJL041W/NSP1] | yes
DYVTNPDTKISSAAILG [RPN1] | no
QEGLITTTMLQLFSTFD [SSN2] | no
HRLKLCKSLISENEDTK [CSE2] | yes
VSLTQLRCVKYLQETAI [RPC82] | no
NIGETAGVVQDIGSDPT [RPB9] | yes
LNAINNAEKTGKRQVLL [RPS22B] | yes
VGDFLLQYANNAVISHA [SIN4] | no
NANTGFSFGGTQTGQNT [YGL172W/NUP49] | yes
AQEDVPYLLPYILEAEA [QCR7] | no
PVNSADGKEDVEKGTPL [SME1] | yes
PIAASTDLPIETAAMAS [RPN1] | no
NCIRILADKLENYEGKQ [YIL149C/MLP2] | yes
QESLLSRTFDKYSKLVD [SRP72] | no
HLSYCSNLTIYPIYELL [GRR1] | no
HDYWNKIMQSISNKDVI [SRB4] | no
GVARIYASFNDTFVHVT [RPS14B] | no
EVVEAVTVVDTPPVVVV [RPL3] | no
KIVYIAPLKALVQEQVR [BRR2] | no
HHFTCEITGTSCLTFFQ [ITC1] | no
VPLSDNAIIEANLGKYG [RPL7A] | no
GVDPTGSHLFSIHAHGS [PUP1] | no
IDQVNELVTISWVQPRI [RPN9] | yes
LLKYSNETKKRNFLETV [RPL1A] | no
KIRELEAELSSTKVENS [YIL149C/MLP2] | yes
ISNVIKPNQTIMVLDAS [SRP54] | no
KNNSSIRNVIMSASNAN [SRB8] | no
PAFKPTEKKFTKEQYAA [RPL5] | yes
IKVEGAVGNLGNAVTVT [RPL22A] | yes
GTGNNNKLNFIVDDKQE [DIB1] | no
LESSITDAGVLALKLEL [YJL039C/NUP192] | no
MKVFVTKHLMPQDLTFN [RPB7] | no
GSSNKAVVQTVKGLLNT [YJL039C/NUP192] | yes
TAEINCFMHLLVQLFLW [RPN3] | no
TRYELYIKNILEAPVKS [YLR335W/NUP2] | no
KEPRLVIVTDPRLDAQA [RPS0B] | yes
KVGIWPYFDYIFNDILA [YJL039C/NUP192] | no
LMKKACYVGLLTAIPIL [SNU114] | no
IDMLPMLLGTDLCSLKP [DIS3] | no
FLERKCVHMVYEYAEHD [SSN3] | no
IKGPEFKFSGTVSSDVF [YLR335W/NUP2] | yes
VNRQSPLFFVDLKLLFN [RGR1] | no
SYDFLPLSNIKALLFFN [RPN12] | no
RIVGSELIQKYLGDGPR [RPT2] | yes
SQFINDHILFTKTFIFI [SRB8] | no
PGTNGKVKKPLKYLSVE [PRE7] | yes
HGHLGFLPRKRAASIRA [RPL3] | no
IKTVVLVPQLGHVGSVQ [PRP8] | no
NSLLLDSTPEEVSCKLL [YML103C/NUP188] | yes
